A collection of binders and their measured Anti-CD28 Fab signal
# measured-on: T1, Anti-CD28 Fab (SEQ ID NOs: 696, 697)
# T1 construct: Biotinylated and captured on neutravidin coated plates in the phage ELISA
# measurement-notes: phage binding ELISA; biotinylated anti-CD28 Fab on neutravidin plate, bound phage detected with anti-M13 HRP;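 also: crude supernatants of clonal phage screened, wells pretreated with blocking buffer with or without CD28 antigen before brief phage incubation, washed, then bound phage detected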
readout-label: Anti-CD28 Fab signal

INSERT INTO results (binder, readout_label, meas_value) VALUES
  ('YCDGHVGAYMWKCL (tested as crude clonal phage supernatant) [Phage-1220]', 'Anti-CD28 Fab signal', 0.99),
  ('YCEGHRPEYMANCL (tested as crude clonal phage supernatant) [Phage-1217]', 'Anti-CD28 Fab signal', 1),
  ('YCDGHLAEYIQKCL (tested as crude clonal phage supernatant) [Phage-1208]', 'Anti-CD28 Fab signal', 1.04),
  ('YCDGHLEVYMSKCL (tested as crude clonal phage supernatant) [Phage-1216]', 'Anti-CD28 Fab signal', 1),
  ('YCEGHIEQYMRKCL (tested as crude clonal phage supernatant) [Phage-1211]', 'Anti-CD28 Fab signal', 1.01),
  ('YCEGHSSVYLWKCL (tested as crude clonal phage supernatant) [Phage-1214]', 'Anti-CD28 Fab signal', 1),
  ('YCFGHAPEYLLKCL (tested as crude clonal phage supernatant) [Phage-1212]', 'Anti-CD28 Fab signal', 1.01),
  ('YCAGHSSEYLQKCL (tested as crude clonal phage supernatant) [Phage-1209]', 'Anti-CD28 Fab signal', 1.03),
  ('YCEGHLREYMLKCL (tested as crude clonal phage supernatant) [Phage-1213]', 'Anti-CD28 Fab signal', 1.01),
  ('YCAGHSQVYMWKCL (tested as crude clonal phage supernatant) [Phage-1210]', 'Anti-CD28 Fab signal', 1.02),
  ('YCEGHIEPYMQKCL (tested as crude clonal phage supernatant) [Phage-1218]', 'Anti-CD28 Fab signal', 0.99),
  ('YCDGHKPEYMDKCL (tested as crude clonal phage supernatant) [Phage-1219]', 'Anti-CD28 Fab signal', 0.99),
  ('YCEGHSWIYIAKCL (tested as crude clonal phage supernatant) [Phage-1215]', 'Anti-CD28 Fab signal', 1);
